B1: DLC1 (parent)
chain: RDAIEALCRRLNTLNKCAVMKLEI

Variants of: B1
Assay: protein stability index of a GFP-peptide fusion (GPS, HEK-293T) (PSI 1-6); higher = more stable;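 note: lentivirally expressed fusions sorted by FACS into six bins by GFP to DsRed ratio, PSI derived from sequencing read proportions per bin multiplied by bin number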
Conditions: c terminus: a fixed tail appended
readout: protein stability index

>  <inputSequence>
RDAIEALCRRKNTLNKCAVMKLEI [L11K]

>  <valueReported>
2.96

$$$$
>  <inputSequence>
RDAIEALCRRLNNLNKCAVMKLEI [T13N]

>  <valueReported>
2.28

$$$$
>  <inputSequence>
RDAKEALCRRLNTLNKCAVMKLEI [I4K]

>  <valueReported>
2.37

$$$$
>  <inputSequence>
RDQIEALCRRLNTLNKCAVMKLEI [A3Q]

>  <valueReported>
2.95

$$$$
>  <inputSequence>
RDAIEALCRRLNTVNKCAVMKLEI [L14V]

>  <valueReported>
2.93

$$$$
>  <inputSequence>
RDAIEALCRRLNTLNKCATMKLEI [V19T]

>  <valueReported>
1.04

$$$$
>  <inputSequence>
RDAIEALCRRLNTLNKCAVMMLEI [K21M]

>  <valueReported>
1.69

$$$$
>  <inputSequence>
RDAIEALCRRLNTLNKCAHMKLEI [V19H]

>  <valueReported>
3.85

$$$$

This collection of values is drawn from the supplement of paper PMC10567573.
